# Assay target: DinF-BH (Halalkalibacterium halodurans)
# Sequence (Q9KAX3 1-464): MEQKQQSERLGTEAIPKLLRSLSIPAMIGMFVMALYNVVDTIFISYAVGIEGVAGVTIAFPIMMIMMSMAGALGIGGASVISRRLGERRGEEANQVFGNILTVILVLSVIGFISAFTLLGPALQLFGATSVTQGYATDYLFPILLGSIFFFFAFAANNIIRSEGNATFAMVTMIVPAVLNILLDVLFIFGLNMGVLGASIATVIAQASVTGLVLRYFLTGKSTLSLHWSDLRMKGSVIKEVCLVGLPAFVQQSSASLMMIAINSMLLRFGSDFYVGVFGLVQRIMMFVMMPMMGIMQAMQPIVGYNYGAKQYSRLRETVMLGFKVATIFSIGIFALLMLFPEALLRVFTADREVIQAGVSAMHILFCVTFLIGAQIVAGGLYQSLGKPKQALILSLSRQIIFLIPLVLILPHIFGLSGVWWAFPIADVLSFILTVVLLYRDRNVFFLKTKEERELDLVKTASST
# Method: Fluorescence polarization assay of R6G binding to purified DinF-BH
# Parameters: species or system Bacillus halodurans

- Compound smiles: "CC/N=c1\\cc2oc3cc(NCC)c(C)cc3c(-c3ccccc3C(=O)OCC)c-2cc1C"
  Kd: "3.1 µM"

====

# Assay target: DinF-BH D40N mutant (Halalkalibacterium halodurans, UniProt Q9KAX3, D40N)
# Sequence (Q9KAX3 1-464, stated change not applied): as the sequence (Q9KAX3 1-464) above
# Method: Fluorescence polarization assay of R6G binding to purified D40N mutant

- Compound smiles: "CC/N=c1\\cc2oc3cc(NCC)c(C)cc3c(-c3ccccc3C(=O)OCC)c-2cc1C"
  Unit text: "µM"
  Kd: 107
